Target: Estrogen receptor (Homo sapiens)
Assay: qHTS assay to identify small molecule agonists of the estrogen receptor alpha (ER-alpha) signaling pathway using the BG1 cell line (AID 743079); also: nearly all actives have a fitted effect of over 20% in size
Conditions: BG1Luc4E2 cells, ERE-luciferase agonist, 22 h
Inconclusive results are not listed. Active and inactive are the calls of the source. Calls follow the shape of the dose curve; as a rule, active = well fitted activation curve with a large enough effect in the repeat runs; inconclusive = weak or mixed curves, or effect the other way; inactive = no such curve, though single readings can be large or run the other way.
Outcome codes: YES for active, NO for inactive

INSERT INTO results (compound, study_system, class) VALUES
  ('S=C=NCCc1ccccc1', 'Estrogen receptor (Homo sapiens)', 'YES'),
  ('O=NN(CCO)CCO', 'Estrogen receptor (Homo sapiens)', 'NO'),
  ('CCNc1nc(NC(C)C(C)C)nc(SC)n1 (stereo unspecified)', 'Estrogen receptor (Homo sapiens)', 'NO'),
  ('ClC(Cl)C(Cl)(Cl)Cl', 'Estrogen receptor (Homo sapiens)', 'NO'),
  ('COP(=S)(NC(C)C)Oc1ccc(C)cc1[N+](=O)[O-] (stereo unspecified)', 'Estrogen receptor (Homo sapiens)', 'YES'),
  ('Clc1ccc(C(Cl)(Cl)Cl)cc1Cl', 'Estrogen receptor (Homo sapiens)', 'NO');

Ref: PubChem BioAssay (Tox21)
